# target.or.system: Rat liver microsomal squalene synthase (Rattus norvegicus, UniProt Q02769)
# Construct: Rat liver microsomes, the source of enzyme, were prepared; from tissue; host or cells: rat liver microsomes
# Sequence (Q02769 whole entry): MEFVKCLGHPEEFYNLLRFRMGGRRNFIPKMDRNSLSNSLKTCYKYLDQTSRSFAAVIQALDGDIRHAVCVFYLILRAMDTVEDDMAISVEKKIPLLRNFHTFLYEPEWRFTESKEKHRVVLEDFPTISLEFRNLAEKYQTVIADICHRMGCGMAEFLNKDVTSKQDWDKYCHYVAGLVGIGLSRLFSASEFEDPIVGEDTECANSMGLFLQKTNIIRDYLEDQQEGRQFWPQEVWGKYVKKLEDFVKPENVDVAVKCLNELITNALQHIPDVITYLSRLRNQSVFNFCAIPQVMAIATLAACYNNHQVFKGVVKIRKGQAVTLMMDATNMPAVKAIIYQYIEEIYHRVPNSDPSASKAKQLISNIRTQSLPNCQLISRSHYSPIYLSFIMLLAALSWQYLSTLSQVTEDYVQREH
# run.description: In vitro inhibition of squalene synthase (rat liver microsomes, 3H-farnesyl diphosphate)
# Type: biochemical
# settings: 1 μM; compared to controls with no test compound
readout: inhibition at 1 µM (%)

P = C[C@@H](c1ccccc1)N(Cc1ccc(Oc2ccccc2)cc1)C(=O)[C@H]1[C@H](C(=O)O)[C@H](C(=O)N(Cc2ccc(Oc3ccccc3)cc2)[C@@H](C)c2ccccc2)[C@H]1C(=O)O
Q = O=C(O)C1C(C(=O)N(CCSCc2ccccc2)Cc2ccc(Oc3ccccc3)cc2)C(C(=O)O)C1C(=O)N(CCSCc1ccccc1)Cc1ccc(Oc2ccccc2)cc1 (stereo not drawn)
R = CCCN(Cc1ccc(Nc2ccccc2)cc1)C(=O)[C@H]1[C@H](C(=O)O)[C@H](C(=O)N(CCC)Cc2ccc(Nc3ccccc3)cc2)[C@H]1C(=O)O
Reorder the items by inhibition at 1 µM, least to greatest. Present the labels in the sequence the task asks for. Q, R, P

###

# target.or.system: Rat brain protein farnesyltransferase (Rattus norvegicus, UniProt Q02293+Q04631)
# Construct: The enzyme was purified according to Reiss, Y., et al., Cell, 62: 81-88 (1990), utilizing steps one through three; from tissue; host or cells: rat brain
# run.description: In vitro inhibition of protein farnesyltransferase (biotin-lamin substrate, scintillation proximity assay)
# Type: biochemical
# settings: 10 μM; compared to uninhibited control
# Description: In vitro inhibition of protein farnesyltransferase may be measured by the following procedure. […] Rat brain protein farnesyltransferase activity was measured using the biotin-lamin substrate (which is known to undergo farnesylation in a manner analogous to Ras protein) and radioactive farnesyl diphosphate provided by Amersham Life Science in their commercial scintillation proximity assay kit for the determination of farnesyltransferase. […]
readout: inhibition at 10 µM (%)

The cases that follow already have their inhibition at 10 µM on record.
smiles.code	unit.symbol	inhibition at 10 µM
O=C(O)[C@H]1[C@H](C(=O)N(Cc2ccc(Oc3ccccc3)cc2)Cc2ccc3oc4ccccc4c3c2)[C@H](C(=O)O)[C@H]1C(=O)N(Cc1ccc(Oc2ccccc2)cc1)Cc1ccc2oc3ccccc3c2c1	%	55
O=C(O)[C@H]1[C@H](C(=O)N(Cc2ccc(Oc3ccccc3)cc2)C2CCCC2)[C@H](C(=O)O)[C@H]1C(=O)N(Cc1ccc(Oc2ccccc2)cc1)C1CCCC1	%	32
COc1cccc(CCN(Cc2ccc(Oc3ccccc3)cc2)C(=O)[C@H]2[C@H](C(=O)O)[C@H](C(=O)N(CCc3cccc(OC)c3)Cc3ccc(Oc4ccccc4)cc3)[C@H]2C(=O)O)c1	%	66

A = CCCN(Cc1ccc(Nc2ccccc2)cc1)C(=O)[C@H]1[C@H](C(=O)O)[C@H](C(=O)N(CCC)Cc2ccc(Nc3ccccc3)cc2)[C@H]1C(=O)O
B = O=C(O)[C@H]1[C@H](C(=O)N(Cc2ccc(Oc3ccccc3)cc2)C2CCCCC2)[C@H](C(=O)O)[C@H]1C(=O)N(Cc1ccc(Oc2ccccc2)cc1)C1CCCCC1
// task: argmin of inhibition at 10 µM over [ A , B ] Respond with the label that goes with your answer. B

###

# target.or.system: Rat brain protein farnesyltransferase (Rattus norvegicus, UniProt Q02293+Q04631)
# Construct: The enzyme was purified according to Reiss, Y., et al., Cell, 62: 81-88 (1990), utilizing steps one through three; from tissue; host or cells: rat brain
# run.description: In vitro inhibition of protein farnesyltransferase (biotin-lamin substrate, scintillation proximity assay)
# Format: biochemical
# settings: 10 μM; compared to uninhibited control
readout: inhibition at 10 µM (%)

The cases that follow already have their inhibition at 10 µM on record.
> print(dat)
                                   molecule              readout  result
1  COc1ccc(CN(Cc2ccc(Oc3ccccc3)cc2)C(=O)[C@H]2[C@H](C(=O)O)[C@H](C(=O)N(Cc3ccc(OC)cc3)Cc3ccc(Oc4ccccc4)cc3)[C@H]2C(=O)O)cc1  inhibition at 10 µM      50
2  C#CCN(Cc1ccc(Oc2ccccc2)cc1)C(=O)[C@H]1[C@H](C(=O)O)[C@H](C(=O)N(CC#C)Cc2ccc(Oc3ccccc3)cc2)[C@H]1C(=O)O  inhibition at 10 µM      28
3  COCCN(Cc1ccc(Oc2ccccc2)cc1)C(=O)C1C(C(=O)O)C(C(=O)N(CCOC)Cc2ccc(Oc3ccccc3)cc2)C1C(=O)O (centres unmarked)  inhibition at 10 µM      49
4  CC(C)CN(Cc1ccc(Oc2ccccc2)cc1)C(=O)[C@H]1[C@H](C(=O)O)[C@H](C(=O)N(Cc2ccc(Oc3ccccc3)cc2)CC(C)C)[C@H]1C(=O)O  inhibition at 10 µM      59
5  CN(Cc1ccc(OCc2ccccc2)cc1)C(=O)[C@H]1[C@H](C(=O)O)[C@H](C(=O)N(C)Cc2ccc(OCc3ccccc3)cc2)[C@H]1C(=O)O  inhibition at 10 µM      45
6  O=C(O)[C@H]1[C@H](C(=O)N(CCCc2ccccc2)Cc2ccc(Oc3ccccc3)cc2)[C@H](C(=O)O)[C@H]1C(=O)N(CCCc1ccccc1)Cc1ccc(Oc2ccccc2)cc1  inhibition at 10 µM      43

a = COC(=O)CN(Cc1ccc(Oc2ccccc2)cc1)C(=O)[C@H]1[C@H](C(=O)O)[C@H](C(=O)N(CC(=O)OC)Cc2ccc(Oc3ccccc3)cc2)[C@H]1C(=O)O
b = CN(Cc1ccc(Oc2ccccc2)cc1)C(=O)[C@H]1[C@H](C(=O)O)[C@H](C(=O)N(C)Cc2ccc(Oc3ccccc3)cc2)[C@H]1C(=O)O
// task: argmin of inhibition at 10 µM over [ a , b ] Respond with the label that goes with your answer. b

a = CCCN(CCCCCc1ccccc1)C(=O)[C@H]1[C@H](C(=O)O)[C@H](C(=O)N(CCC)CCCCCc2ccccc2)[C@H]1C(=O)O
b = CCN(Cc1ccc(Oc2ccccc2)cc1)C(=O)[C@H]1[C@H](C(=O)O)[C@H](C(=O)N(CC)Cc2ccc(Oc3ccccc3)cc2)[C@H]1C(=O)O
c = O=C(O)[C@H]1[C@H](C(=O)OCc2ccc(Oc3ccccc3)cc2)[C@H](C(=O)O)[C@H]1C(=O)OCc1ccc(Oc2ccccc2)cc1
Could you please sort these 3 entries by inhibition at 10 µM from high to low? Present the labels in the sequence the task asks for. a, b, c

A = CCSCCN(Cc1ccc(Oc2ccccc2)cc1)C(=O)C1C(C(=O)O)C(C(=O)N(CCSCC)Cc2ccc(Oc3ccccc3)cc2)C1C(=O)O (centres unmarked)
B = CCCN(Cc1ccc(Oc2ccccc2C)cc1)C(=O)C1C(C(=O)O)C(C(=O)N(CCC)Cc2ccc(Oc3ccccc3C)cc2)C1C(=O)O (centres unmarked)
C = COc1ccc2c(c1)CCN(C(=O)C1C(C(=O)O)C(C(=O)N3CCc4cc(OC)ccc4C3)C1C(=O)O)C2 (centres unmarked)
In this exercise, place the 3 molecules in ascending sequence of their recorded inhibition at 10 µM. Present the labels in the sequence the task asks for. C, B, A
(C: 23%, B: 35%, A: 77%)

I = CC(C)=CCC/C(C)=C/CCN(C)C(=O)[C@H]1[C@H](C(=O)O)[C@H](C(=O)N(C)CC/C=C(\C)CCC=C(C)C)[C@H]1C(=O)O
II = CN(Cc1cccc(Oc2ccccc2)c1)C(=O)[C@H]1[C@H](C(=O)O)[C@H](C(=O)N(C)Cc2cccc(Oc3ccccc3)c2)[C@H]1C(=O)O
III = O=C(O)[C@H]1[C@H](C(=O)N(Cc2ccc(Oc3ccccc3)cc2)CC2CCCCC2)[C@H](C(=O)O)[C@H]1C(=O)N(Cc1ccc(Oc2ccccc2)cc1)CC1CCCCC1
Could you please sort these 3 entries by inhibition at 10 µM from high to low? Present the labels in the sequence the task asks for. II, I, III
